Origin of values: patent US20250313563A1

# SYSTEM_UNDER_TEST: GSK3α (GST-full length GSK3α) (Homo sapiens (Human), UniProt P49840)
# Sequence (P49840 whole entry): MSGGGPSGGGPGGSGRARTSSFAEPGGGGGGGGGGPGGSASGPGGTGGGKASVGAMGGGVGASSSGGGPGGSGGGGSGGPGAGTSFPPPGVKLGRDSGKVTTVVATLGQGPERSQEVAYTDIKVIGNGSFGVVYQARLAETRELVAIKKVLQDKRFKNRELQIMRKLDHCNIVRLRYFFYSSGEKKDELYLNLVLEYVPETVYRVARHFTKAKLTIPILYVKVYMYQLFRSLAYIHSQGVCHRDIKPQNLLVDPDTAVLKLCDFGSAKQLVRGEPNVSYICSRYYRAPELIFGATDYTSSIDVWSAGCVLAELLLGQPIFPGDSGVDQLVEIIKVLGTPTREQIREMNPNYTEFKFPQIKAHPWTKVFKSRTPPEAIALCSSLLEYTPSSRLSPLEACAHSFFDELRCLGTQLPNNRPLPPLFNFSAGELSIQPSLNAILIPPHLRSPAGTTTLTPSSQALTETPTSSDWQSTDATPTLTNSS
# ASSAY_NAME: GSK3α TR-FRET kinase assay
# Format: biochemical
# CONDITION_CONTEXT: GSK3-A (TR-FRET 1 mM ATP); GMean; IC50, 1 mM ATP; geometric mean
pIC50: −log10 of the molar value.
Quick list: pIC50 per entry.

Known pIC50 results, listed for orientation:
CC1(C)CC(=O)C2=C(C1)Nc1n[nH]cc1C21CCN(S(=O)(=O)C2CC2)CC1    6.00 to 7.00
CC1(C)CC(=O)C2=C(C1)Nc1n[nH]cc1[C@]21C[C@@H](c2ccncc2)C1    ≥ 7.00
CC1(C)CC(=O)C2=C(C1)Nc1n[nH]cc1C21CC2(CCCC2)C1    6.00 to 7.00
CC1(C)CC(=O)C2=C(C1)Nc1n[nH]cc1C21CCN(S(=O)(=O)C2CCCC2)CC1    ≥ 7.00
CC(C)S(=O)(=O)N1CCC2(CC1)C1=C(Nc3n[nH]cc32)[C@H](F)C(C)(C)CC1=O    6.00 to 7.00

State, in one line, measured pIC50 of `CC1(C)CC(=O)C2=C(C1)Nc1n[nH]cc1C21CCN(S(=O)(=O)c2cnn(CC(F)(F)F)c2)CC1`
6.00 to 7.00

State, in one line, measured pIC50 of `CC1(C)CC(=O)C2=C(C1)Nc1n[nH]cc1C21CCN(S(=O)(=O)C2CCCCC2)CC1`
≥ 7.00

* * *

# SYSTEM_UNDER_TEST: GSK3b (GST-full length GSK3b) (Homo sapiens (Human))
# Sequence (P49841 whole entry): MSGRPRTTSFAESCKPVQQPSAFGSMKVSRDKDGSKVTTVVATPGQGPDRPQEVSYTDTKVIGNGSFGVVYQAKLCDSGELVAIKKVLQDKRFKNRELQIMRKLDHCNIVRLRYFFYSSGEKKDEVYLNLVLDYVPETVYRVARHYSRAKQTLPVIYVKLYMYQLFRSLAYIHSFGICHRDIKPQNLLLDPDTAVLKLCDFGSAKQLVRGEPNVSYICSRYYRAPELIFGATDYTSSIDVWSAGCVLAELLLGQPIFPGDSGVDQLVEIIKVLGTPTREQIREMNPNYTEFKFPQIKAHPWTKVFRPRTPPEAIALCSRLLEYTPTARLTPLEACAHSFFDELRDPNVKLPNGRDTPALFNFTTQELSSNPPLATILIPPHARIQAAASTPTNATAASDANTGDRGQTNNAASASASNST
# ASSAY_NAME: GSK3b TR-FRET kinase assay
# Assay type: biochemical
# CONDITION_CONTEXT: GSK3-B (TR-FRET 1 mM ATP); GMean; IC50, 1 mM ATP; geometric mean
Quick list: IC50 per entry.

Known IC50 results, listed for orientation:
CCC1(c2cccc(-c3cn(C)nc3C)c2)C2=C(Nc3n[nH]cc31)C(F)C(C)(C)CC2=O (single isomer, unassigned) [Compound 947650]    > 5000 nM
CC1(C)CC(=O)C2=C(C1)Nc1n[nH]cc1C21CCN(S(=O)(=O)c2cccnc2)CC1 [Compound 947613]    1000 to 5000 nM
CC(=O)N1C[C@]2(C[C@]3(CO2)C2=C(CC(C)(C)CC2=O)Nc2n[nH]cc23)[C@H]1C [Compound 948437]    ≤ 100 nM
CC1(C)CC(=O)C2=C(C1)Nc1n[nH]cc1C21CCN(S(=O)(=O)c2cnc3ccccc3c2)CC1 [Compound 947462]    1000 to 5000 nM

State, in one line, measured IC50 of Cc1[nH]nc2c1C1(CN(S(=O)(=O)CC3CC3)C1)C1=C(CC(C)(C)CC1=O)N2 [Compound 107828]
100 to 1000 nM

State, in one line, measured IC50 of CC[C@@]1(c2ccccc2)C2=C(Nc3n[nH]cc31)[C@H](F)C(C)(C)CC2=O [Compound 957197]
> 5000 nM

State, in one line, measured IC50 of CC1(C)CC(=O)C2=C(C1)Nc1n[nH]cc1C21CN(S(=O)(=O)C2CCCC2)C1 [Compound 917139]
100 to 1000 nM

* * *

# SYSTEM_UNDER_TEST: GSK3α (GST-full length GSK3α) (Homo sapiens (Human))
# ASSAY_NAME: GSK3α TR-FRET kinase assay
# Format: biochemical
# CONDITION_CONTEXT: 1 nM GSK3α, 4 μM ATP, 30 minute preincubation; geometric mean; read-out: GSK3-A TR-FRET BIOCHEMICAL (TR-FRET); GMean; IC50
pIC50: −log10 of the molar value.
REPORTED_PROPERTY: pIC50

Known pIC50 results, listed for orientation:
CC[C@]1(c2cccc(-c3ccncc3C)c2)C2=C(CC(C)(C)NC2=O)Nc2n[nH]cc21    ≥ 7.00
CCC1(c2cccc(Br)c2)C2=C(CC(C)(C)CC2=O)Nc2n[nH]c(C(F)(F)F)c21 (stereo not drawn) [Compound 801324]    ≥ 7.00

State, in one line, measured pIC50 of `CC[C@]1(c2cccc(-c3cc(OC)ncc3F)c2)C2=C(CC(C)(C)NC2=O)Nc2n[nH]cc21`
≥ 7.00

State, in one line, measured pIC50 of `CC[C@@]1(c2cccc(-c3ccnc4c3cnn4C)c2)C2=C(CC(C)(C)NC2=O)Nc2n[nH]cc21`
< 5.30

State, in one line, measured pIC50 of CCC1(c2cccc(-c3ccnc4c(Cl)cccc34)c2)C2=C(CC(C)(C)NC2=O)Nc2n[nH]cc21 (stereo not drawn)
< 5.30

State, in one line, measured pIC50 of `CC[C@]1(c2ccccc2)C2=C(CC3(CCCC3)CC2=O)Nc2n[nH]cc21`
< 5.30

State, in one line, measured pIC50 of CCC1(c2cccc(N3CCCCC3)c2)C2=C(CC(C)(C)NC2=O)Nc2n[nH]cc21 (stereo not drawn)
5.30 to 6.00

State, in one line, measured pIC50 of `CC[C@]1(c2cccc(-c3cnn(CCOC)c3)c2)C2=C(CC(C)(C)NC2=O)Nc2n[nH]cc21`
≥ 7.00

* * *

Quick list: IC50 per entry.
# SYSTEM_UNDER_TEST: GSK3α (GST-full length GSK3α) (Homo sapiens (Human), UniProt P49840)
# ASSAY_NAME: GSK3α TR-FRET kinase assay
# Type: biochemical
# CONDITION_CONTEXT: 1 nM GSK3α, 4 μM ATP, 30 minute preincubation, Table 16; read-out: GSK3-A TR-FRET BIOCHEMICAL (TR-FRET); IC50
# Description: TR-FRET Assay: The assay was performed in a white, 384 well, low volume, flat bottom plate (Grenier). After a 30 minute preincubation in assay buffer with the indicated concentration of compound, the kinase activity was initiated by the addition of the substrates. […] After 60 min at room temperature the plate was read on Envision plate reader using Ex: 340 nm, Em: 615 nm and […]. The normalized 665/615 Signal ratio versus log compound concentration was analyzed by XLFIT to yield IC50 values.

CCN(c1cccnc1)c1cccc(C2(CC)C3=C(CC(C)(C)CC3=O)Nc3n[nH]cc32)c1 (stereo not shown) [Compound 917088]    ≤ 100 nM
CC[C@@]1(c2cccc(-c3cc(C)nn3C)c2)C2=C(CC(C)(C)C2=O)Nc2n[nH]cc21    > 5000 nM
CC[C@@]1(c2cccc(C(F)(F)F)c2)C2=C(CCC2=O)Nc2n[nH]cc21    ≤ 100 nM
CC[C@@]1(c2cccc(-c3ccnn3C3CC3(F)F)c2)C2=C(CC(C)(C)NC2=O)Nc2n[nH]cc21 (stereo partly shown)    100 to 1000 nM

State, in one line, measured IC50 of CCC1(c2cccc(-c3ccncc3F)c2)C2=C(CC(C)(C)CC2=O)Nc2n[nH]cc21 (stereo not shown) [Compound 883986]
≤ 100 nM

State, in one line, measured IC50 of CCC1(c2cccc(-c3ccnc(OC)c3)c2)C2=C(CC(C)(C)CC2=O)Nc2n[nH]cc21 (stereo not shown) [Compound 883850]
≤ 100 nM

State, in one line, measured IC50 of `CCN(C(C)=O)c1cccc([C@]2(CC)C3=C(CC(C)(C)CC3=O)Nc3n[nH]cc32)c1`
≤ 100 nM

* * *

# SYSTEM_UNDER_TEST: GSK3α (GST-full length GSK3α) (Homo sapiens (Human))
# ASSAY_NAME: GSK3α TR-FRET kinase assay
# Format: biochemical
# CONDITION_CONTEXT: 1 nM GSK3α, 4 μM ATP, 30 minute preincubation, Table 16; read-out: GSK3-A TR-FRET BIOCHEMICAL (TR-FRET); IC50
REPORTED_PROPERTY: IC50

Known IC50 results, listed for orientation:
CC[C@]1(c2cccc(C(F)(F)F)c2)C2=C(CCN(c3ccsc3)C2=O)Nc2n[nH]cc21 [Compound 952636]    > 5000 nM
CCC1(c2cccc(N3CCCC3C)c2)C2=C(CC(C)(C)CC2=O)Nc2n[nH]cc21 (stereo not shown) [Compound 885204]    ≤ 100 nM
CC1(C)CC(=O)C2=C(C1)Nc1n[nH]cc1C21CCCc2ccccc21 (stereo not shown) [Compound 913219]    ≤ 100 nM
CCC1(c2cccc(N3CCOc4ncccc43)c2)C2=C(CC(C)(C)CC2=O)Nc2n[nH]cc21 (stereo not shown) [Compound 932643]    100 to 1000 nM

State, in one line, measured IC50 of CC[C@]1(c2cccc(Oc3ncccn3)c2)C2=C(CC(C)(C)NC2=O)Nc2n[nH]c(C(F)(F)F)c21 [Compound 951607]
≤ 100 nM

State, in one line, measured IC50 of CC(=O)N1CC[C@]2(C1)C1=C(CC(C)(C)CC1=O)Nc1n[nH]cc12 [Compound 889584]
100 to 1000 nM

State, in one line, measured IC50 of CCC1(c2cccc(-c3ccncc3F)c2)C2=C(CC(C)(C)NC2=O)Nc2n[nH]c(C(F)F)c21 (stereo not shown) [Compound 950320]
≤ 100 nM
